The values you see were collected from ChEMBL document CHEMBL1201862.

- Tested on: Carboxy-terminal domain RNA polymerase II polypeptide A small phosphatase 1 (Homo sapiens)
- Sequence (Q9GZU7 whole entry): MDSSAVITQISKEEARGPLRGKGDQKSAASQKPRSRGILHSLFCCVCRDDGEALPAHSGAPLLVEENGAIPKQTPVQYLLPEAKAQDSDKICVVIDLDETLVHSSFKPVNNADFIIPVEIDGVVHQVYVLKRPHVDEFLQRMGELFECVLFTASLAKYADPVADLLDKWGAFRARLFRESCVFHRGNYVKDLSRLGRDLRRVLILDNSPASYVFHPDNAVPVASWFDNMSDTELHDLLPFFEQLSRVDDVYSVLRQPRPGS
- Test details: CTDSP1 inhibitors, concentration-response, biochemical, absorbance readout, ultra-high-throughput screen actives (AID 540297)
- Type: functional
Calls of active or inactive are those of the source. No stated cut-off is given here; in the data, actives have a measured IC50 and inactives only a lower limit.
Attribute measured: IC50

1. O=C(CN1C(=O)N/C(=C\c2ccccc2OCc2ccc(C(=O)O)cc2)C1=O)Nc1ccc(F)cc1    9.09 µM (active)
2. Cc1c(O)cc2c(c1O)C(=O)CC(c1ccc(O)cc1)O2 (stereo unspecified)    4.74 µM (active)
3. O=C(COC(=O)c1cc(-c2cccs2)nc2ccccc12)NCc1ccco1    9.73 µM (active)
4. CC(C)[N+](C)(CCC(C(N)=O)(c1ccccc1)c1ccccc1)C(C)C [ISOPROPAMIDE IODIDE]    3.27 µM (active)
5. O=C1NC(=O)N(c2ccc3c(c2)OCO3)C(=O)/C1=C\c1ccc(-c2ccccc2C(=O)O)o1    3.9 µM (active)
6. O=C(CSc1nnc(CNC(=O)c2c(F)cccc2F)o1)NCc1ccco1    14 µM (active)
